The entries below are paired with their reported % Change in Purity of Salt.
assay: Chemical stability of salt forms (change in purity by HPLC upon storage); type: physicochemical; settings: 40° C. and 75% relative humidity, 7 days, heat sealed polyethylene bags, HPLC Method D
Your answer should be a plain number; it is taken to be in %.

Please review the entries below; each comes with its answer.
INSERT INTO assay_data (compound, unit, quantitative_readout) VALUES
  ('COc1ccncc1CN1CCC(N(CCCCCCCN2CC[C@@H](C(C(N)=O)(c3ccccc3)c3ccccc3)C2)C(C)C)CC1.O=C(O)c1ccccc1O.O=C(O)c1ccccc1O [Example 11D]', '%', 0.7),
  ('COc1ccncc1CN1CCC(N(CCCCCCCN2CC[C@@H](C(C(N)=O)(c3ccccc3)c3ccccc3)C2)C(C)C)CC1.O=C(O)c1cc(=O)[nH]c(=O)[nH]1.O=C(O)c1cc(=O)[nH]c(=O)[nH]1 [Example 11C]', '%', 1.1),
  ('COc1ccncc1CN1CCC(N(CCCCCCCN2CC[C@@H](C(C(N)=O)(c3ccccc3)c3ccccc3)C2)C(C)C)CC1.O=C(O)c1cc(O)ccc1O.O=C(O)c1cc(O)ccc1O [Example 11F]', '%', 0.4),
  ('COc1ccncc1CN1CCC(N(CCCCCCCN2CC[C@@H](C(C(N)=O)(c3ccccc3)c3ccccc3)C2)C(C)C)CC1.CS(=O)(=O)O.CS(=O)(=O)O.CS(=O)(=O)O', '%', 16.4);

Next compound, please.
// field: % Change in Purity of Salt; key: COc1ccncc1CN1CCC(N(CCCCCCCN2CC[C@@H](C(C(N)=O)(c3ccccc3)c3ccccc3)C2)C(C)C)CC1.Cl.Cl [Example 11G] ; value = 3.6

###

Molecular target: hM2 muscarinic receptor subtype (Homo sapiens, UniProt P08172)
Sequence (P08172 1-466): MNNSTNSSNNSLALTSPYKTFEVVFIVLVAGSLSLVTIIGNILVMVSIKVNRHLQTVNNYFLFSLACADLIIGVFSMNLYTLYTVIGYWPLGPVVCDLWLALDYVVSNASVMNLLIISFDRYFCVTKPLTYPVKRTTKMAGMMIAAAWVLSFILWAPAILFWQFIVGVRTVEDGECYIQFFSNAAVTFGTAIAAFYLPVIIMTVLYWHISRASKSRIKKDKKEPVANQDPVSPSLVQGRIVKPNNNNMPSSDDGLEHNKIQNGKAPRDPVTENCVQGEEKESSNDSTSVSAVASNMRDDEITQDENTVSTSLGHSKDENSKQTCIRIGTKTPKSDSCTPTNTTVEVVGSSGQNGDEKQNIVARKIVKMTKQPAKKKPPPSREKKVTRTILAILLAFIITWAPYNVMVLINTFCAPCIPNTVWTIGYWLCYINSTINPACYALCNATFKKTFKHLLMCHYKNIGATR
Assay endpoint: Ki

// field: Ki; key: COc1ccncc1CN1CCC(N(CCCCCCCN2CC[C@@H](C(C(N)=O)(c3ccccc3)c3ccccc3)C2)C(C)C)CC1 [Example 6] ; value = < 1 nM

###

The entries below are paired with their reported % Change in Impurity A.
assay: Chemical stability of salt forms (change in purity by HPLC upon storage); format: physicochemical; details: 40° C. and 75% relative humidity, 7 days, HPLC Method D
Your answer should be a plain number; it is taken to be in %.

INSERT INTO assay_data (compound, assay_endpoint, unit, quantitative_readout) VALUES
  ('COc1ccncc1CN1CCC(N(CCCCCCCN2CC[C@@H](C(C(N)=O)(c3ccccc3)c3ccccc3)C2)C(C)C)CC1.O=C(O)c1cc(O)ccc1O.O=C(O)c1cc(O)ccc1O [Example 11F]', '% Change in Impurity A', '%', 0.21);

// field: % Change in Impurity A; key: COc1ccncc1CN1CCC(N(CCCCCCCN2CC[C@@H](C(C(N)=O)(c3ccccc3)c3ccccc3)C2)C(C)C)CC1.O=C(O)C(O)C(O)C(=O)O [Example 11B] ; value = 0.26

// field: % Change in Impurity A; key: COc1ccncc1CN1CCC(N(CCCCCCCN2CC[C@@H](C(C(N)=O)(c3ccccc3)c3ccccc3)C2)C(C)C)CC1.CS(=O)(=O)O.CS(=O)(=O)O.CS(=O)(=O)O ; value = 9.41

// field: % Change in Impurity A; key: COc1ccncc1CN1CCC(N(CCCCCCCN2CC[C@@H](C(C(N)=O)(c3ccccc3)c3ccccc3)C2)C(C)C)CC1.Cl.Cl [Example 11G] ; value = 1.16
